Test system: HepG2
assay.explanation: cytotoxicity call (relative viability < 0.9)
stated.conditions: 10 µM
The campaign covered roughly 39,000 compounds. About 3,300 (8.5%) were called active. Shown is part of a subset that was picked to be rich in actives.
Just give me one of these, please: active, inactive

stdin: Please indicate how the test categorized C[C@H](CO)N1C[C@H](C)[C@@H](CN(C)Cc2ccc(C(=O)O)cc2)OCCCC[C@H](C)Oc2ccc(NS(=O)(=O)c3ccccc3)cc2C1=O .
stdout: inactive

stdin: Please indicate how the test categorized O=C(O)c1ccccc1Nc1cccc(C(F)(F)F)c1 .
stdout: inactive

stdin: Please indicate how the test categorized C[C@@H]1CN([C@H](C)CO)C(=O)Cc2cc(NC(=O)NC3CCCCC3)ccc2O[C@@H]1CN(C)Cc1ccc(Oc2ccccc2)cc1 .
stdout: active

stdin: Please indicate how the test categorized C[C@@H]1CN([C@@H](C)CO)C(=O)Cc2cc(NC(=O)NC3CCCCC3)ccc2O[C@@H]1CN(C)Cc1ccc(-c2ccccc2)cc1 .
stdout: inactive

stdin: Please indicate how the test categorized CC(C)(C)c1ccc(C(=O)Nc2cccc(C(F)(F)F)c2)cc1 .
stdout: inactive

stdin: Please indicate how the test categorized C[C@@H]1CCCCO[C@H](CN(C)C(=O)Cc2ccccc2)[C@H](C)CN([C@H](C)CO)C(=O)c2cc(NC(=O)Nc3ccc(F)cc3)ccc2O1 .
stdout: inactive

stdin: Please indicate how the test categorized C[C@H](CO)N1C[C@H](C)[C@@H](CN(C)S(=O)(=O)c2cccs2)OCCCC[C@H](C)Oc2ccc(NC(=O)Cc3ccccc3)cc2C1=O .
stdout: inactive

stdin: Please indicate how the test categorized O=C(N/N=C/[C@H](O)[C@H](O)[C@@H](O)[C@@H](O)CO)c1ccccn1 .
stdout: inactive

stdin: Please indicate how the test categorized C[C@@H]1CN([C@H](C)CO)C(=O)c2c(c3ccccc3n2C)-c2ccccc2CO[C@H]1CN(C)Cc1ccc(Cl)c(Cl)c1 .
stdout: inactive

stdin: Please indicate how the test categorized C[C@@H]1CN([C@H](C)CO)C(=O)c2c(c3ccccc3n2C)-c2ccccc2CO[C@@H]1CN(C)Cc1ccccc1 .
stdout: active

stdin: Please indicate how the test categorized C[C@H]1CN([C@@H](C)CO)C(=O)c2c(c3ccccc3n2C)-c2ccccc2CO[C@@H]1CN(C)C(=O)c1ccc(F)cc1 .
stdout: inactive

stdin: Please indicate how the test categorized COCCCOc1ccnc(CS(=O)c2nc3ccccc3[n-]2)c1C.[Na+] (stereo not given) .
stdout: inactive

stdin: Please indicate how the test categorized C[C@H](CO)N1C[C@H](C)[C@@H](CN(C)Cc2ccc(-c3ccccc3)cc2)OCc2ccccc2-c2c(n(C)c3ccccc23)C1=O .
stdout: inactive

stdin: Please indicate how the test categorized CC(C)NC(=O)Nc1ccc2c(c1)C(=O)N([C@H](C)CO)C[C@H](C)[C@H](CN(C)C(=O)Nc1ccccc1)OCCCC[C@H](C)O2 .
stdout: inactive

stdin: Please indicate how the test categorized C[C@@H]1CN([C@@H](C)CO)C(=O)c2c(c3ccccc3n2C)-c2ccccc2CO[C@@H]1CN(C)Cc1ccc(-c2ccccc2)cc1 .
stdout: inactive

stdin: Please indicate how the test categorized C[C@H]1CN([C@@H](C)CO)C(=O)Cc2cc(NC(=O)NC3CCCCC3)ccc2O[C@@H]1CN(C)Cc1ccc(Oc2ccccc2)cc1 .
stdout: inactive

stdin: Please indicate how the test categorized C[C@H]1CN([C@@H](C)CO)C(=O)Cc2cc(NC(=O)NC3CCCCC3)ccc2O[C@H]1CN(C)Cc1ccc(Oc2ccccc2)cc1 .
stdout: active

stdin: Please indicate how the test categorized C[C@H](CO)N1C[C@H](C)[C@H](CN(C)Cc2ccc(Cl)c(Cl)c2)OCc2ccccc2-c2c(n(C)c3ccccc23)C1=O .
stdout: active

stdin: Please indicate how the test categorized O=C(Nc1cccc(C(F)(F)F)c1)c1ccc2ccccc2c1 .
stdout: active

stdin: Please indicate how the test categorized CCCCCCC#C[Si](O[C@H](c1ccccc1)c1cn(Cc2cccc(Cl)c2)nn1)(C(C)C)C(C)C .
stdout: inactive

stdin: Please indicate how the test categorized COc1ccc(-c2coc3cc(OC)ccc3c2=O)c(O)c1 .
stdout: inactive

stdin: Please indicate how the test categorized C[C@@H]1CN([C@H](C)CO)C(=O)Cc2cc(NC(=O)NC3CCCCC3)ccc2O[C@H]1CN(C)Cc1ccc(-c2ccccc2)cc1 .
stdout: active

stdin: Please indicate how the test categorized CC(C)CC#Cc1ccc2c(c1)O[C@H](CN(C)C(=O)NC1CCCC1)[C@@H](C)CN([C@H](C)CO)S2(=O)=O .
stdout: inactive

stdin: Please indicate how the test categorized C[C@@H]1CN([C@H](C)CO)C(=O)c2c(c3ccccc3n2C)-c2ccccc2CO[C@H]1CN(C)Cc1ccc(C(F)(F)F)cc1 .
stdout: active

stdin: Please indicate how the test categorized C[C@H]1CN([C@@H](C)CO)C(=O)c2cc(NC(=O)CCCN(C)C)ccc2O[C@@H]1CN(C)Cc1ccc2c(c1)OCO2 .
stdout: inactive

stdin: Please indicate how the test categorized C[C@H](CO)N1C[C@H](C)[C@@H](CN(C)Cc2ccc(Oc3ccccc3)cc2)Oc2ccc(NC(=O)NC3CCCCC3)cc2CC1=O .
stdout: inactive

stdin: Please indicate how the test categorized C[C@H]1CN([C@@H](C)CO)C(=O)Cc2cc(NC(=O)NC3CCCCC3)ccc2O[C@H]1CN(C)Cc1ccc(-c2ccccc2)cc1 .
stdout: inactive

stdin: Please indicate how the test categorized C[C@@H]1CN([C@@H](C)CO)C(=O)c2c(c3ccccc3n2C)-c2ccccc2CO[C@@H]1CN(C)Cc1ccc(C(F)(F)F)cc1 .
stdout: inactive

stdin: Please indicate how the test categorized C[C@H]1CN([C@@H](C)CO)C(=O)c2c(c3ccccc3n2C)-c2ccccc2CO[C@@H]1CN(C)Cc1ccc(-c2ccccc2)cc1 .
stdout: inactive

stdin: Please indicate how the test categorized CCNC(=O)c1cc2c(c(-c3cccc(-c4cc5ccccc5o4)c3)n1)[C@@H](CCO)N(C(=O)NC(C)C)C2 .
stdout: inactive

====

System: HepG2
assay.explanation: cytotoxicity call (relative viability < 0.9)
stated.conditions: 10 µM
The campaign covered roughly 39,000 compounds. About 3,300 (8.5%) were called active. The list comes from a sample in which actives are over-represented; it also holds close analogues and randomly drawn compounds.
Just give me one of these, please: 1 (yes) (active), 0 (no) (inactive)

stdin: Please indicate how the test categorized C[C@@H]1CCCCO[C@H](CN(C)Cc2ccc(C(=O)O)cc2)[C@H](C)CN([C@H](C)CO)C(=O)c2cc(NC(=O)Nc3ccc4c(c3)OCO4)ccc2O1 .
stdout: 0 (no)

stdin: Please indicate how the test categorized C[C@@H]1CN([C@@H](C)CO)C(=O)c2cc(NC(=O)Nc3ccc(C(F)(F)F)cc3)ccc2O[C@@H](C)CCCCO[C@H]1CN(C)Cc1ccc2c(c1)OCO2 .
stdout: 1 (yes)

stdin: Please indicate how the test categorized CC(=O)N1Cc2cc(C(=O)NCC(F)(F)F)nc(-c3cccc(-c4cc5ccccc5o4)c3)c2[C@H]1CCO .
stdout: 0 (no)

stdin: Please indicate how the test categorized C[C@@H]1CN([C@@H](C)CO)C(=O)c2cc(-c3cccnc3)cnc2O[C@@H]1CN(C)Cc1ccc(Oc2ccccc2)cc1 .
stdout: 0 (no)

stdin: Please indicate how the test categorized Cc1noc(C)c1NC(=O)Nc1ccc2c(c1)C(=O)N([C@H](C)CO)C[C@@H](C)[C@H](CN(C)C(=O)Nc1ccccc1)OCCCC[C@@H](C)O2 .
stdout: 0 (no)

stdin: Please indicate how the test categorized C[C@H](CO)N1C[C@H](C)[C@H](CN(C)C(=O)Cc2ccccc2)OCCCC[C@H](C)Oc2ccc(NS(=O)(=O)c3cccs3)cc2C1=O .
stdout: 0 (no)

====

Test system: HepG2
assay.explanation: cytotoxicity call (relative viability < 0.9)
stated.conditions: 10 µM
In all, about 39,000 compounds went through this assay and about 3,300 (8.5%) were called active. Shown is part of a subset that was picked to be rich in actives.
Just give me one of these, please: yes (active), no (inactive)

stdin: Please indicate how the test categorized CN1C(=O)c2cc(NC(=O)c3ccc(C(F)(F)F)cc3)ccc2OC[C@@H]2O[C@@H](CC(=O)NC3Cc4ccccc4C3)CC[C@@H]21 .
stdout: yes

stdin: Please indicate how the test categorized CN1C(=O)c2cc(NC(=O)c3ccc(C(F)(F)F)cc3)ccc2OC[C@H]2O[C@H](CC(=O)NC3Cc4ccccc4C3)CC[C@H]21 .
stdout: yes

stdin: Please indicate how the test categorized CN1C(=O)c2cc(NC(=O)Nc3ccccc3F)ccc2OC[C@H]2O[C@H](CC(=O)NCc3ccc(-c4ccccc4)cc3)CC[C@H]21 .
stdout: no

stdin: Please indicate how the test categorized CN1C(=O)c2cc(NC(=O)c3ccc(C(F)(F)F)cc3)ccc2OC[C@H]2O[C@H](CC(=O)NC3Cc4ccccc4C3)CC[C@@H]21 .
stdout: no

====

Test system: HepG2
assay.explanation: cytotoxicity call (relative viability < 0.9)
stated.conditions: 10 µM
About 3,300 (8.5%) of roughly 39,000 compounds were called active. Many of the other results were omitted from the sample, so actives are more common in it than they were.
endpoint.label: cytotoxicity call

Example entries and their recorded answers appear below.
[[record]]
record_smiles = "Cc1noc(C)c1NC(=O)N[C@@H]1C=C[C@H](CC(=O)NCCCN(C)C)O[C@@H]1CO"
endpoint_label = "cytotoxicity call"
result_value = "inactive"

[[record]]
record_smiles = "C[C@@H]1CCCCO[C@H](CN(C)S(=O)(=O)c2ccc(Cl)cc2)[C@@H](C)CN([C@@H](C)CO)C(=O)c2cc(NS(=O)(=O)c3ccc(Cl)cc3)ccc2O1"
endpoint_label = "cytotoxicity call"
result_value = "inactive"

[[record]]
record_smiles = "C[C@@H]1CN([C@H](C)CO)C(=O)Cc2cc(NS(=O)(=O)c3ccc(Cl)cc3)ccc2O[C@H]1CN(C)Cc1ccc(C(F)(F)F)cc1"
endpoint_label = "cytotoxicity call"
result_value = "active"

[[record]]
record_smiles = "COc1ccc(S(=O)(=O)N[C@@H]2CC[C@@H](CC(=O)N3CCC(Cc4ccccc4)CC3)O[C@@H]2CO)cc1"
endpoint_label = "cytotoxicity call"
result_value = "inactive"

[[record]]
record_smiles = "C[C@@H]1CCCCO[C@H](CN(C)S(=O)(=O)c2ccc(Cl)cc2)[C@H](C)CN([C@@H](C)CO)C(=O)c2cc(NS(=O)(=O)c3ccc(Cl)cc3)ccc2O1"
endpoint_label = "cytotoxicity call"
result_value = "active"

[[record]]
record_smiles = "COCC(=O)Nc1ccc2c(c1)OC[C@H](C)N(Cc1cccc(F)c1)C[C@@H](C)[C@@H](OC)CN(C)C2=O"
endpoint_label = "cytotoxicity call"
result_value = "inactive"


Form field cytotoxicity call, entry CN1C(=O)c2cc(NC(=O)c3cccs3)ccc2OC[C@H]2O[C@@H](CC(=O)NCCN3CCCCC3)CC[C@@H]21 : inactive

Form field cytotoxicity call, entry CO[C@H]1CN(C)C(=O)c2ccc(NC(=O)NC(C)C)cc2OC[C@@H](C)N(Cc2ccc(-c3ccccn3)cc2)C[C@H]1C : inactive

Form field cytotoxicity call, entry C[C@H]1CN([C@@H](C)CO)C(=O)Cc2cc(NS(=O)(=O)c3ccc(Cl)cc3)ccc2O[C@H]1CN(C)Cc1ccc(C(F)(F)F)cc1 : active
